Test system: P. aeruginosa 27853
Assay type: cell-based, Pseudomonas aeruginosa
Conditions: 27853, 20 h
Peptide text beside a SMILES is read from it. * marks the point of attachment. Octanoyl = CCCCCCCC(=O)*; Hexanoyl = CCCCCC(=O)*; Butyryl = CCCC(=O)*
Below, each entry is listed alongside its reported MICs, P. aeruginosa 27853.
Number only, in µM; omit the unit.

Solved cases (2 shown):
1) CCCCCC(=O)NCCCC[C@H](NC(=O)[C@H](CC(C)C)NC(=O)[C@H](CCCCN)NC(=O)[C@H](CCCCN)NC(=O)[C@H](CC(C)C)NC(=O)[C@H](CCCCNC(=O)CCCCC)NC(=O)[C@H](CCCCN)NC(=O)[C@H](CCCCN)NC(=O)[C@H](CC(C)C)NC(=O)[C@H](CCCCN)NC(=O)[C@H](CCCCN)NC(=O)[C@H](CC(C)C)NC(=O)[C@@H](N)Cc1c[nH]c2ccccc12)C(=O)N[C@@H](CCCCN)C(=O)N[C@@H](CCCCN)C(=O)O [WL-C6] (H-WLKKLKKK(Hexanoyl)LKKLK(Hexanoyl)KK-OH)	2
2) CCCCCCCC(=O)NCCCC[C@H](NC(=O)[C@H](CC(C)C)NC(=O)[C@H](CCCCN)NC(=O)[C@H](CCCCN)NC(=O)[C@H](CC(C)C)NC(=O)[C@H](CCCCNC(=O)CCCCCCC)NC(=O)[C@H](CCCCN)NC(=O)[C@H](CCCCN)NC(=O)[C@H](CC(C)C)NC(=O)[C@H](CCCCN)NC(=O)[C@H](CCCCN)NC(=O)[C@H](CC(C)C)NC(=O)[C@@H](N)Cc1c[nH]c2ccccc12)C(=O)N[C@@H](CCCCN)C(=O)N[C@@H](CCCCN)C(=O)O [WL-C8] (H-WLKKLKKK(Octanoyl)LKKLK(Octanoyl)KK-OH)	4

Now for the molecule whose MICs, P. aeruginosa 27853 we want.
IN: Reported MICs, P. aeruginosa 27853, molecule CCCC(=O)NCCCC[C@H](NC(=O)[C@H](CC(C)C)NC(=O)[C@H](CCCCN)NC(=O)[C@H](CCCCN)NC(=O)[C@H](CC(C)C)NC(=O)[C@H](CCCCNC(=O)CCC)NC(=O)[C@H](CCCCN)NC(=O)[C@H](CCCCN)NC(=O)[C@H](CC(C)C)NC(=O)[C@H](CCCCN)NC(=O)[C@H](CCCCN)NC(=O)[C@H](CC(C)C)NC(=O)[C@@H](N)Cc1c[nH]c2ccccc12)C(=O)N[C@@H](CCCCN)C(=O)N[C@@H](CCCCN)C(=O)O [WL-C4] (H-WLKKLKKK(Butyryl)LKKLK(Butyryl)KK-OH) : ____
OUT: 2
